# credit: PubChem BioAssay AID1117325

- Tested on: C2C12 WNT3A-conditioned, nuclear beta-catenin
- ASSAY_METHOD_TEXT: activation of intranuclear CTNNB1 in the C2C12 line, dose-response, cell-based, Wnt-3a conditioned medium, half-maximal inhibitory concentration (AID 1117325)
Active and inactive are the calls of the source. The rule behind the calls is not given here.
Select the correct class. Options are active, inactive and nothing else.

Below are worked cases with known answers.
[
  {
    "MOLECULE": "O=[N+]([O-])c1ccc(O)c2ncccc12",
    "ASSAY_TARGET": "C2C12 WNT3A-conditioned, nuclear beta-catenin",
    "QUALITATIVE_LABEL": "inactive"
  },
  {
    "MOLECULE": "Cc1cc2c(C(C)C)c(O)c(O)c(C=O)c2c(O)c1-c1c(C)cc2c(C(C)C)c(O)c(O)c(C=O)c2c1O",
    "ASSAY_TARGET": "C2C12 WNT3A-conditioned, nuclear beta-catenin",
    "QUALITATIVE_LABEL": "active"
  },
  {
    "MOLECULE": "NC(=NCCCCCCN=C(N)/N=C(\\N)Nc1ccc(Cl)cc1)/N=C(\\N)Nc1ccc(Cl)cc1",
    "ASSAY_TARGET": "C2C12 WNT3A-conditioned, nuclear beta-catenin",
    "QUALITATIVE_LABEL": "inactive"
  },
  {
    "MOLECULE": "CC(C)C[C@H](NC(=O)[C@H](CCc1ccccc1)NC(=O)CN1CCOCC1)C(=O)N[C@@H](Cc1ccccc1)C(=O)N[C@@H](CC(C)C)C(=O)[C@@]1(C)CO1",
    "ASSAY_TARGET": "C2C12 WNT3A-conditioned, nuclear beta-catenin",
    "QUALITATIVE_LABEL": "active"
  },
  {
    "MOLECULE": "CN1C[C@H](CNC(=O)OCc2ccccc2)C[C@@H]2c3cccc4c3c(cn4C)C[C@H]21",
    "ASSAY_TARGET": "C2C12 WNT3A-conditioned, nuclear beta-catenin",
    "QUALITATIVE_LABEL": "inactive"
  },
  {
    "MOLECULE": "O[C@@H](c1cc(C(F)(F)F)nc2c(C(F)(F)F)cccc12)[C@H]1CCCCN1",
    "ASSAY_TARGET": "C2C12 WNT3A-conditioned, nuclear beta-catenin",
    "QUALITATIVE_LABEL": "inactive"
  },
  {
    "MOLECULE": "CCCSc1ccc2nc(NC(=O)OC)[nH]c2c1",
    "ASSAY_TARGET": "C2C12 WNT3A-conditioned, nuclear beta-catenin",
    "QUALITATIVE_LABEL": "active"
  },
  {
    "MOLECULE": "NC(N)=NN=C(/C=C/c1ccc([N+](=O)[O-])o1)/C=C/c1ccc([N+](=O)[O-])o1",
    "ASSAY_TARGET": "C2C12 WNT3A-conditioned, nuclear beta-catenin",
    "QUALITATIVE_LABEL": "inactive"
  },
  {
    "MOLECULE": "C[C@@]12C(=O)OC(=O)[C@]1(C)C1CCC2O1",
    "ASSAY_TARGET": "C2C12 WNT3A-conditioned, nuclear beta-catenin",
    "QUALITATIVE_LABEL": "inactive"
  },
  {
    "MOLECULE": "COC(=O)c1nc(Cl)c(Cl)nc1N",
    "ASSAY_TARGET": "C2C12 WNT3A-conditioned, nuclear beta-catenin",
    "QUALITATIVE_LABEL": "active"
  }
]

Given COCc1c(C(C)C)nc(C(C)C)c(/C=C/[C@@H](O)C[C@@H](O)CC(=O)O)c1-c1ccc(F)cc1 , state the outcome it received in this test.
inactive

Let us now turn to CCCCCCNC(=O)n1cc(F)c(=O)[nH]c1=O
active

Let us now turn to Cc1cc(CC(C)CC(C)(C)C)n(O)c(=O)c1 (stereo not drawn)
active

Let us now turn to Clc1cc(Cl)c(OCC#CI)cc1Cl
inactive

Let us now turn to Oc1c(Cl)cc(Cl)cc1Sc1cc(Cl)cc(Cl)c1O
inactive

Let us now turn to COc1cc(C=C2CCC/C(=C\c3ccc(O)c(OC)c3)C2=O)ccc1O
inactive
